The measured values listed here are drawn from the supplement of paper PMC11208160.

Experiment: recombinant UMI read abundance after kanamycin selection (control-corrected) (log10(CPM+1)); higher = more efficient recombination; extreme values may be limits of the assay; sequences stand for … in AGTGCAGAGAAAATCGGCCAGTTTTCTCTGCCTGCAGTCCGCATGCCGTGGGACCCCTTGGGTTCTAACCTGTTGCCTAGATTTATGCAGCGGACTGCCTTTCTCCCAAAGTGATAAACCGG…AGGTTGGTTTCACT; site = the 11-nt donor;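 note: IS621 bridge recombinase in Escherichia coli cells against a fixed T5 target plasmid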
Param threshold (0.007) applies to recombinant UMI read abundance (log10); output satisfied when value >= threshold, not satisfied when value < threshold.

residue_sequence	assigned_label
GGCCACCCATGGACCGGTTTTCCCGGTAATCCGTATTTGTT (site GGCCACCCTCA)	not satisfied
GTTGTTCCATGGACCGGTTTTCCCGGTAATCCGTATTTGAT (site GTTGTTCCTAA)	satisfied
GCTAGAACATGGACCGGTTTTCCCGGTAATCCGTATTTGGC (site GCTAGAACTGC)	satisfied
GGGTCACCATGGACCGGTTTTCCCGGTAATCCGTATTTGCA (site GGGGCACCTTG)	not satisfied
CTAGAATCATGGACCGGTTTTCCCGGTAATCCGTATTTGAC (site CTAGGATCTGT)	satisfied
CTGGAAACATGGACCGGTTTTCCCGGTAATCCGTATTTGTA (site CTGGAAACTTG)	satisfied
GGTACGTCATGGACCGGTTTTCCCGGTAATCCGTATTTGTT (site GATACGTCTAA)	not satisfied
CTGTCTACATGGACCGGTTTTCCCGGTAATCCGTATTTGTT (site CTGTCTACTAA)	satisfied

---

Experiment: recombinant UMI read abundance after kanamycin selection (control-corrected) (log10(CPM+1)); higher = more efficient recombination; extreme values may be limits of the assay; sequences stand for … in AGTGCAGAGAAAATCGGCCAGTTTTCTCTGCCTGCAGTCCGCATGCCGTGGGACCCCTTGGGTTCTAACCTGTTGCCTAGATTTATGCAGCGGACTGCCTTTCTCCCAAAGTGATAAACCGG…AGGTTGGTTTCACT; site = the 11-nt donor
recombinant UMI read abundance (log10) overview

residue_sequence	recombinant UMI read abundance (log10)
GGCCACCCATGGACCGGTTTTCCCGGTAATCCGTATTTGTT (site GGCCACACTAA)	0.0112
GTTTGCCCATGGACCGGTTTTCCCGGTAATCCGTATTTGAT (site GCTTGCCCTAT)	0.0198
TCTACACCATGGACCGGTTTTCCCGGTAATCCGTATTTGAC (site TGTACACCTGT)	0
ACAGAGACATGGACCGGTTTTCCCGGTAATCCGTATTTGCG (site CCAGAGACTCG)	2.19
CGTAATACATGGACCGGTTTTCCCGGTAATCCGTATTTGGC (site CGTAATACTGC)	1.22
GTTATTGCATGGACCGGTTTTCCCGGTAATCCGTATTTGAT (site GTTATTGCTAT)	1.79
TGGTGGACATGGACCGGTTTTCCCGGTAATCCGTATTTGTT (site TGGTGGACTAA)	0.734
GCGAATACATGGACCGGTTTTCCCGGTAATCCGTATTTGCT (site GCGAAAACTAG)	0
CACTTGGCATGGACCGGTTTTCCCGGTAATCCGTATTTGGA (site CAATTGGCTTC)	0.432
